# Target desc: Rat2 fibroblasts stably transformed with v-Src/Hu c-Src fusion gene (Homo sapiens, UniProt P12931, cells depend on it, form not given)
# Sequence (P12931 whole entry, change not shown, the tested form may be a part): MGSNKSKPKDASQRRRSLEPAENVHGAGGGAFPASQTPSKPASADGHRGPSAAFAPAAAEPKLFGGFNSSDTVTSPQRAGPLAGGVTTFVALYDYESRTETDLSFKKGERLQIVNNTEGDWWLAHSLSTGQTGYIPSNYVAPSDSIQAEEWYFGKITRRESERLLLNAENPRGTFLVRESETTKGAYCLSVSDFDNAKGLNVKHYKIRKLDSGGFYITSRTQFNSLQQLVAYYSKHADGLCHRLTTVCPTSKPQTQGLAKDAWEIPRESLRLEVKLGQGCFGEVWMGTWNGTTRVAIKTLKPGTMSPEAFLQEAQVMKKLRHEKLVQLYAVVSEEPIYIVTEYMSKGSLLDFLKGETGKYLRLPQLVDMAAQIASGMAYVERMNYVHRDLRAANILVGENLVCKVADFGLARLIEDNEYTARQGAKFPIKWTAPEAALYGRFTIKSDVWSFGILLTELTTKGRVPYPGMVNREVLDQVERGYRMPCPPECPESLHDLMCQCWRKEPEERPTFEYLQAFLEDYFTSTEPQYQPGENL
# Assay name: Anchorage Independent Src-transformed Fibroblast Proliferation Assay
# Assay type: cell-based, Rat
# Test settings: suspension growth, MTS reagent on Day 5; read-out: anch-indep src-tx fib IC50
Quantity measured: log10 GI50 (log10 of the value in nM)

COc1cc(Nc2c(C#N)cnc3cc(-c4cccc(NC(C)=O)c4)ccc23)c(Cl)cc1Cl    3.48
COc1cc(Nc2c(C#N)cnc3cc(-c4ccc(CN5CCCC(C(=O)O)C5)cc4)ccc23)c(Cl)cc1Cl (stereo not shown)    3.40
COc1cc(Nc2c(C#N)cnc3cc(-c4csc(CN5CCOCC5)c4)ccc23)c(Cl)cc1Cl    2.26
COc1cc(Nc2c(C#N)cnc3cc(-c4cc(CN5CCOCC5)cs4)ccc23)c(Cl)cc1Cl    2.08
COc1ccc(Cl)c(Nc2c(C#N)cnc3cc(-c4ccc(CN5CCOCC5)cc4)ccc23)c1    2.76
COc1cc(Nc2c(C#N)cnc3cc(-c4ccc(CN(CCO)CCO)o4)ccc23)c(Cl)cc1Cl    3.04
COc1cc(Nc2c(C#N)cnc3cc(-c4ccc(CN5CCC[C@@H]5C(N)=O)o4)ccc23)c(Cl)cc1Cl    3.07
COc1cc(Nc2c(C#N)cnc3cc(-c4ccc(CCN5CCOCC5)cc4)ccc23)c(Cl)cc1Cl    3.01
COc1cc(Nc2c(C#N)cnc3cc(-c4ccc(CCCCN5CCOCC5)s4)ccc23)c(Cl)cc1Cl    2.78
COc1cc(Nc2c(C#N)cnc3cc(-c4ccc(CN5CCOCC5)cc4)ccc23)c(Cl)cc1F    2.90
N#Cc1cnc2cc(-c3ccc(CCN4CCOCC4)s3)ccc2c1Nc1ccc(Cl)cc1Cl    3.43
COc1cc(Nc2c(C#N)cnc3cc(-c4ccc(CN5CCC(O)CC5)s4)ccc23)c(Cl)cc1Cl    1.95
COc1cc(Nc2c(C#N)cnc3cc(-c4ccc(CNCCS(C)(=O)=O)cc4)ccc23)c(Cl)cc1Cl    2.93
COc1cc(Nc2c(C#N)cnc3cc(-c4csc(CN5CCOCC5)c4)ccc23)c(Cl)cc1C    1.90
COc1cc(Nc2c(C#N)cnc3cc(-c4ccc(CN5CCOCC5)c(CN5CCOCC5)c4)ccc23)c(Cl)cc1C    2.86
COc1cc(Nc2c(C#N)cnc3cc(-c4ccc(CN5CCC[C@@H]5C(N)=O)cc4)ccc23)c(Cl)cc1Cl    2.89
COc1cc(Nc2c(C#N)cnc3cc(-c4ccc(C5OCCO5)s4)ccc23)c(Cl)cc1Cl    2.62
CCOC(=O)CC1CCN(Cc2ccc(-c3ccc4c(Nc5cc(OC)c(Cl)cc5Cl)c(C#N)cnc4c3)cc2)CC1    1.96
COc1cc(Nc2c(C#N)cnc3cc(-c4ccc(CN5CCOCC5)s4)ccc23)c(Cl)cc1Cl    1.95

###

Each entry below carries its recorded melting point.
Quantity measured: melting point

COc1cc(Nc2c(C#N)cnc3cc(-c4ccc(N5CCN(C)CC5)nc4)ccc23)c(Cl)cc1Cl    240 to 242 °C
COc1cc(Nc2c(C#N)cnc3cc(-c4ccc(CN5CCC(C(=O)O)CC5)cc4)ccc23)c(Cl)cc1Cl    248 °C
COc1cc(Nc2c(C#N)cnc3cc(-c4ccc(CNCCc5ccccn5)o4)ccc23)c(Cl)cc1Cl    130 to 135 °C
CN1CCN(Cc2ccc(-c3ccc4c(Nc5ccc(Sc6nccn6C)c(Cl)c5)c(C#N)cnc4c3)cc2)CC1    202 to 203 °C
N#Cc1cnc2cc(-c3cc(CN4CCOCC4)c(CN4CCOCC4)s3)ccc2c1Nc1ccc(Cl)cc1Cl    118 to 125 °C
N#Cc1cnc2cc(-c3csc(C=O)c3)ccc2c1Nc1ccc(Cl)cc1Cl    286 to 288 °C
COc1cc(Nc2c(C#N)cnc3cc(-c4csc(CN5CCOCC5)c4)ccc23)c(Cl)cc1F    185 to 187 °C
COc1cc(Nc2c(C#N)cnc3cc(-c4cc5ccccc5s4)ccc23)c(Cl)cc1Cl    269 to 270 °C
N#Cc1cnc2cc(C=CCCCN3CCOCC3)ccc2c1Nc1ccc(Cl)cc1Cl (mixture of isomers)    70 to 72 °C
Cn1ccnc1Sc1ccc(Nc2c(C#N)cnc3cc(-c4ccc(CN5CCC(N6CCCC6)CC5)cn4)ccc23)cc1Cl    183 to 185 °C
CN(CCO)c1ccc(-c2ccc3c(Nc4ccc(Sc5nccn5C)c(Cl)c4)c(C#N)cnc3c2)cn1    228 °C (dec.)
CCN1CCN(Cc2cccc(-c3ccc4c(Nc5ccc(Sc6nccn6C)c(Cl)c5)c(C#N)cnc4c3)n2)CC1    214 to 216 °C
COc1cc(Nc2c(C#N)cnc3cc(C#CCCl)ccc23)c(Cl)cc1Cl    215 to 217 °C
COc1cc(Nc2c(C#N)cnc3cc(-c4ccc(CCl)cc4)ccc23)c(Cl)cc1Cl    236 to 239 °C
COc1cc(Nc2c(C#N)cnc3cc(-c4cnc(CN5CCOCC5)n4C)c(OC)cc23)c(Cl)cc1Cl    248 to 252 °C
CN1CCN(Cc2ccnc(-c3ccc4c(Nc5ccc(Sc6nccn6C)c(Cl)c5)c(C#N)cnc4c3)c2)CC1    208 to 210 °C
COc1cc(Nc2c(C#N)cnc3cc(-c4cccc(CN5CCOCC5)n4)ccc23)c(Cl)cc1Cl    181 to 183 °C
Cn1ccnc1Sc1ccc(Nc2c(C#N)cnc3cc(-c4ccc(CN5CCC(C(=O)O)CC5)cn4)ccc23)cc1Cl    166 to 168 °C
Cn1ccnc1Sc1ccc(Nc2c(C#N)cnc3cc(-c4ccc(C=O)cc4)ccc23)cc1Cl    > 240 °C (dec.)
COc1cc(Nc2c(C#N)cnc3cc(-c4csc(CN5CCOCC5)c4)ccc23)c(Cl)cc1C    168 to 170 °C
CN1CCN(Cc2ccc(-c3ccc4ncc(C#N)c(Nc5ccc(Sc6nccn6C)c(Cl)c5)c4c3)nc2)CC1    260 to 262 °C
CCN1CCN(c2ccc(-c3ccc4c(Nc5ccc(Sc6nccn6C)c(Cl)c5)c(C#N)cnc4c3)cn2)CC1    254 to 256 °C
CCN1CCN(Cc2ccc(-c3ccc4c(Nc5ccc(Sc6nccn6C)c(Cl)c5)c(C#N)cnc4c3)nc2)CC1    125 to 130 °C
Cn1ccnc1Sc1ccc(Nc2c(C#N)cnc3cc(-c4csc(CN5CCOCC5)c4)ccc23)cc1Cl    110 to 113 °C
Cn1ccnc1Sc1ccc(Nc2c(C#N)cnc3cc(-c4ccc(C=O)cn4)ccc23)cc1Cl    130 °C (dec.)
CCN(CC)Cc1ccc(-c2ccc3c(Nc4cc(OC)c(Cl)cc4Cl)c(C#N)cnc3c2)cc1    191 to 195 °C
N#Cc1cnc2cc(C#CCO)ccc2c1Nc1ccc(Cl)cc1Cl    251 to 253 °C
Cn1ccnc1Sc1ccc(Nc2c(C#N)cnc3cc(-c4cc(CN5CCOCC5)ccn4)ccc23)cc1Cl    205 to 207 °C
COc1cc(Nc2c(C#N)cnc3cc(C#CCO)ccc23)c(Cl)cc1Cl    245 °C (dec.)
CCN1CCN(Cc2cccnc2-c2ccc3c(Nc4ccc(Sc5nccn5C)c(Cl)c4)c(C#N)cnc3c2)CC1    187 to 190 °C
COc1cc(Nc2c(C#N)cnc3cc(-c4ccc(CO)n4C)ccc23)c(Cl)cc1Cl    175 °C (dec.)

###

Reported melting point is given for each of the following molecules.
Quantity measured: melting point

Cn1ccnc1Sc1ccc(Nc2c(C#N)cnc3cc(-c4ccc(CN5CCN(C(=O)OC(C)(C)C)CC5)cc4)ccc23)cc1Cl    184 to 186 °C
COc1cc(Nc2c(C#N)cnc3cc(-c4ccc(C5OCCO5)s4)ccc23)c(Cl)cc1Cl    174 to 177 °C (dec.)
COc1cc(Nc2c(C#N)cnc3cc(-c4ccc(CN(CCO)CCO)o4)ccc23)c(Cl)cc1Cl    155 to 160 °C
COc1cc(Nc2c(C#N)cnc3cc(-c4ccc(CN5CCOCC5)c(CN5CCOCC5)c4)ccc23)c(Cl)cc1Cl    198 to 200 °C
COc1cc(Nc2c(C#N)cnc3cc(-c4csc(C=O)c4)ccc23)c(Cl)cc1Cl    259 to 262 °C (dec.)
Cn1ccnc1Sc1ccc(Nc2c(C#N)cnc3cc(-c4cnc(N5CCOCC5)nc4)ccc23)cc1Cl    > 250 °C
N#Cc1cnc2cc(-c3csc(CN4CCOCC4)c3)ccc2c1Nc1ccc(Cl)cc1Cl    203 to 205 °C
CCOC(=O)C1CCCCN1Cc1ccc(-c2ccc3c(Nc4cc(OC)c(Cl)cc4Cl)c(C#N)cnc3c2)cc1 (stereo not drawn)    78 to 80 °C
N#Cc1cnc2cc(-c3ccc(CN4CCOCC4)o3)ccc2c1Nc1ccc(Cl)cc1Cl    118 to 120 °C
COc1cc2c(Nc3ccc(Sc4nccn4C)c(Cl)c3)c(C#N)cnc2cc1-c1csc(CN2CCN(C)CC2)c1    162 to 164 °C
COc1cc(Nc2c(C#N)cnc3cc(-c4ccc(CN5CCSCC5)cc4)ccc23)c(Cl)cc1Cl    216 to 219 °C
CC(C)N1CCN(Cc2ccc(-c3ccc4c(Nc5ccc(Sc6nccn6C)c(Cl)c5)c(C#N)cnc4c3)cc2)CC1    193 to 195 °C
CN1CCN(c2ccc(-c3ccc4c(Nc5ccc(Sc6nccn6C)c(Cl)c5)c(C#N)cnc4c3)cn2)CC1    227 to 279 °C
COc1cc(Nc2c(C#N)cnc3cc(-c4ccc(CN5CCN(C)CC5)n4C)ccc23)c(Cl)cc1Cl    200 °C (dec.)
CCN1CCN(c2ccc(-c3ccc4ncc(C#N)c(Nc5ccc(Sc6nccn6C)c(Cl)c5)c4c3)nc2)CC1    150 °C (dec.)

Values compiled from patent US20020026052A1.
